Test system: LPETG (Abz-LPETGK(Dnp)-CONH2)
Test: In vitro sortase kinetics HPLC assay, LPETG substrate
Assay type: biochemical
Conditions: 1 mM LPETG
Quick reference for KH among some molecules
The response must be a number in µM with no trailing unit.

[[record]]
molecule = "eSrtA(4S-9): P94R, N98D, S102C, A104V, A118T, F122A, K134R, F144L, D160N, D165A, I182V, E189F, K190E, K196T (protein) QAKPQIPKDKSKVAGYIEIPDADIKEPVYPGPATREQLDRGVCFVEENESLDDQNISITGHTAIDRPNYQFTNLRAAKKGSMVYLKVGNETRKYKMTSIRNVKPTAVEVLDEQKGKDKQLTLVTCDDYNFETGVWETRKIFVATEVK"
unit_tag = "µM"
reading = 295

[[record]]
molecule = "eSrtA (protein) QAKPQIPKDKSKVAGYIEIPDADIKEPVYPGPATREQLNRGVSFAEENESLDDQNISIAGHTFIDRPNYQFTNLKAAKKGSMVYFKVGNETRKYKMTSIRNVKPTAVEVLDEQKGKDKQLTLITCDDYNEETGVWETRKIFVATEVK"
unit_tag = "µM"
reading = 32.8

[[record]]
molecule = "SrtA: wild-type Staphylococcus aureus sortase A (SEQ ID NO: 1) (protein, S. aureus) MKKWTNRLMTIAGVVLILVAAYLFAKPHIDNYLHDKDKDEKIEQYDKNVKEQASKDKKQQAKPQIPKDKSKVAGYIEIPDADIKEPVYPGPATPEQLNRGVSFAEENESLDDQNISIAGHTFIDRPNYQFTNLKAAKKGSMVYFKVGNETRKYKMTSIRDVKPTDVEVLDEQKGKDKQLTLITCDDYNEKTGVWEKRKIFVATEVK"
unit_tag = "µM"
reading = 14.3


stdin: For the molecule shown here, eSrtA(2A-9): P94R, S102C, A104H, E105D, K138P, K152I, N160K, K162H, T164N, D165A, K173E, I182V, K190E, T196S (protein) QAKPQIPKDKSKVAGYIEIPDADIKEPVYPGPATREQLNRGVCFHDENESLDDQNISIAGHTFIDRPNYQFTNLKAAKPGSMVYFKVGNETRIYKMTSIRKVHPNAVEVLDEQEGKDKQLTLVTCDDYNEETGVWESRKIFVATEVK , give the reported KH.
stdout: 27.1
